Molecular target: Hyaluronidase from bovine testes (Bos taurus)
Sequence (Q2YDK3 36-553): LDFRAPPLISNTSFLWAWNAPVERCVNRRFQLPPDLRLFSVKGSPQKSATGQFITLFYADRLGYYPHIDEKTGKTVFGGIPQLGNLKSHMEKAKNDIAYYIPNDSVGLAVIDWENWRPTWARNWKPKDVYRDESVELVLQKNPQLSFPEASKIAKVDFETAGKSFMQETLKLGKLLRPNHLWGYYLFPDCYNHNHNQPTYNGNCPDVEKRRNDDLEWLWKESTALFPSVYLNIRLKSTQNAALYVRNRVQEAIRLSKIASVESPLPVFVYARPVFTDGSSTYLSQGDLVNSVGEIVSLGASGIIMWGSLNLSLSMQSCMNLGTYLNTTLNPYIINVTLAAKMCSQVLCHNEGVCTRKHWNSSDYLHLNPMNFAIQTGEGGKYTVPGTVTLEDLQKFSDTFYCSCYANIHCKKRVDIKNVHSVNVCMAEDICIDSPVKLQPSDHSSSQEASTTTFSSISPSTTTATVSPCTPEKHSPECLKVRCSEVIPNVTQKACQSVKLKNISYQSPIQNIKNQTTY
Property Name: IC50 (µM)

a = O=C(O)CCC(=O)C(=O)O [AKG, α-ketoglutarate]
b = O=C(O)c1cc(=O)c2c(OCC(O)COc3cccc4oc(C(=O)O)cc(=O)c34)cccc2o1 [DSCG, disodium cromoglycate]
Task: Between the two listed entries a and b , which has its IC50 at the higher number? Identify your pick by its label.
Output: a
